Experiment: Pharmacokinetic test in beagle dogs
Format: in vivo
Details: blood; beagle dog, oral 10 mg/kg vs intravenous 5 mg/kg; read-out: F (%) bioavailability
# key: entry, value: bioavailability
Expressed in %, but write only the number.

{"columns": ["item.smiles", "readout.unit", "bioavailability"],
 "data": [
  ["CNCc1cn(S(=O)(=O)c2ccc(C)nc2)c(-c2ccc(F)cc2F)c1OC", "%", 83.8]
]}

Let us examine a further case.
Problem: Answer with reported bioavailability of `CNCc1cn(S(=O)(=O)c2ccc(OC)nc2)c(-c2ccccc2F)c1OC`
Solution: 71.7

###

Biological target: proton pump (H+/K+-ATPase) (Sus scrofa)
Construct: Gastric vesicles isolated from pig stomach were prepared according to the document; from tissue; host or cells: pig stomach (gastric vesicles)
Sequence (P19156 2-1034 limits assumed): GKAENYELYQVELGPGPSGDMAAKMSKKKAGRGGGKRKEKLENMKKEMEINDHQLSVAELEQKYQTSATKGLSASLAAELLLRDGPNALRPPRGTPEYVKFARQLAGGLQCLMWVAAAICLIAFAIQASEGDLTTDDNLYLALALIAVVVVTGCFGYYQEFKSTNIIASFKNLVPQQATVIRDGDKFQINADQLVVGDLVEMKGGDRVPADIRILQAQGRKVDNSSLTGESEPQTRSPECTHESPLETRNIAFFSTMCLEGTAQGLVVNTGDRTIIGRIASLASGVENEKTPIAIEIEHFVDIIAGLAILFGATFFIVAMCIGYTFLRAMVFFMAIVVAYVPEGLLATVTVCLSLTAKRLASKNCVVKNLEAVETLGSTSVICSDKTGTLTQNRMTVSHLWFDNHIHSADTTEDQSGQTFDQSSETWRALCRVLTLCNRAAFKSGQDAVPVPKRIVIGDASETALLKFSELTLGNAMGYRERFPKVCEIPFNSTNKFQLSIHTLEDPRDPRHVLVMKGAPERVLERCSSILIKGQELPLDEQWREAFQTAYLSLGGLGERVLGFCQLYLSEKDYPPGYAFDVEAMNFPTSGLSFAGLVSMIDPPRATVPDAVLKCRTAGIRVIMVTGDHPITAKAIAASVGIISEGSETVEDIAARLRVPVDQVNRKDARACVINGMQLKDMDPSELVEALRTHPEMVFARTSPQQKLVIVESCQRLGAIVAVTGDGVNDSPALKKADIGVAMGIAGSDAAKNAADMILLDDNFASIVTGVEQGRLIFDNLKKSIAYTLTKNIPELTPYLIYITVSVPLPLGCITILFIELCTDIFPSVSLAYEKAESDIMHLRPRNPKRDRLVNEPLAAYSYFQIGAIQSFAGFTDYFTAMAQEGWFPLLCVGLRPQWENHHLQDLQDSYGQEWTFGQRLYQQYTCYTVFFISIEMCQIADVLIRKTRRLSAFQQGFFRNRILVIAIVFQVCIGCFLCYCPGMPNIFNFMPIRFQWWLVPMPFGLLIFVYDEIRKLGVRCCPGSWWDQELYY
Sequence (P18434 whole entry partner): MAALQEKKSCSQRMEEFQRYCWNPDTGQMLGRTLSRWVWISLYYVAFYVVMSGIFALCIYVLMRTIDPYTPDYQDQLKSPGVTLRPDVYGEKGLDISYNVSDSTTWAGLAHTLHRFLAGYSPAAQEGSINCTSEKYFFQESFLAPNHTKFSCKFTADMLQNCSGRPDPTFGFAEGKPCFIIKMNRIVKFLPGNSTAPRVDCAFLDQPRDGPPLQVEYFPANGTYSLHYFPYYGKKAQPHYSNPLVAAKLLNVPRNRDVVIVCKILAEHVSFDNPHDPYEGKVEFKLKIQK
Test: Proton pump (H+/K+-ATPase) inhibitory activity depending on pH
Assay type: biochemical, pig
Settings: pH 7.5
# key: entry, value: IC50

{"columns": ["item.smiles", "study.target", "IC50"],
 "data": [
  ["CNCc1cn(S(=O)(=O)c2ccc(OC)nc2)c(-c2ccccc2F)c1OC", "proton pump (H+/K+-ATPase) (Sus scrofa)", "100 to 1000 nM"]
]}

Let us examine a further case.
Problem: Answer with reported IC50 of `CNCc1cn(S(=O)(=O)c2ccc(C)nc2)c(-c2ccc(F)cc2F)c1OC`
Solution: 100 to 1000 nM

###

Target: proton pump (H+/K+-ATPase) (Sus scrofa)
Construct: Gastric vesicles isolated from pig stomach were prepared according to the document; from tissue; host or cells: pig stomach (gastric vesicles)
Assay: Proton pump (H+/K+-ATPase) inhibitory activity depending on pH
Type: biochemical, pig
Details: pH 6.5
quantity.kind: IC50

{"columns": ["item.smiles", "result"],
 "data": [
  ["CNCc1cn(S(=O)(=O)c2ccc(C)nc2)c(-c2ccc(F)cc2F)c1OC", "≤ 100 nM"]
]}

Let us examine a further case.
Problem: GET IC50 | system: proton pump (H+/K+-ATPase) (Sus scrofa) | item: `CNCc1cn(S(=O)(=O)c2ccc(OC)nc2)c(-c2ccccc2F)c1OC`
Solution: ≤ 100 nM

###

Assay: Pharmacokinetic test in rats
Type: in vivo
Details: blood; rat, oral 10 mg/kg vs intravenous 5 mg/kg; read-out: F (%) bioavailability
quantity.kind: bioavailability

{"columns": ["item.smiles", "quantity.kind", "result"],
 "data": [
  ["CNCc1cn(S(=O)(=O)c2ccc(OC)nc2)c(-c2ccccc2F)c1OC", "bioavailability", "22%"]
]}

Let us examine a further case.
Problem: Answer with reported bioavailability of `CNCc1cn(S(=O)(=O)c2ccc(C)nc2)c(-c2ccc(F)cc2F)c1OC`
Solution: 27.3%

###

# key: entry, value: AUC(0-inf)
Assay: Pharmacokinetic test in beagle dogs
Format: in vivo
Conditions: blood; beagle dog, single oral dose 10 mg/kg
Expressed in ng·h/mL, but write only the number.

{"columns": ["compound", "readout.unit", "AUC(0-inf)"],
 "data": [
  ["CNCc1cn(S(=O)(=O)c2ccc(C)nc2)c(-c2ccc(F)cc2F)c1OC [Example 3]", "ng·h/mL", 14500]
]}

Problem: Answer with reported AUC(0-inf) of CNCc1cn(S(=O)(=O)c2ccc(OC)nc2)c(-c2ccccc2F)c1OC [Example 1]
Solution: 10200
